tested on: RSV; experiment: viral titer; assay type: cell-based, human respiratory syncytial virus; conditions: human respiratory syncytial virus, read-out: viral titer reduction at 10 µM
experimental.readout: log reduction at 10 µM

| input.smiles | result.operator | measured.value |
| --- | --- | --- |
| COCCCNC(=O)c1ccc(Cn2c(=O)c3ccccc3n(Cc3ccc([N+](=O)[O-])cc3)c2=O)cc1 | = | 5.6 |
| COCCCNC(=O)c1ccc(Cn2c(=O)c3ccccc3n(Cc3ccc(OC)cc3)c2=O)cc1 | = | 2.7 |
| COCCCNC(=O)c1ccc(Cn2c(=O)c3ccccc3n(Cc3ccc(Cl)cc3)c2=O)cc1 | = | 3.1 |
| CC(C)c1ccc(Cn2c(=O)n(Cc3ccc(C(=O)NCC4COC4)cc3)c(=O)c3ccccc32)cc1 | = | 5.8 |
| COCCCNC(=O)c1ccc(Cn2c(=O)c3ccccc3n(Cc3ccc(Br)cc3)c2=O)cc1 | = | 4.1 |
| O=C(NCC1COC1)c1ccc(Cn2c(=O)c3ccccc3n(Cc3ccc([N+](=O)[O-])cc3)c2=O)cc1 | > | 6.2 |
| COCCCNC(=O)c1ccc(Cn2c(=O)c3ccccc3n(Cc3ccc(C(F)(F)F)cc3)c2=O)cc1 | = | 2.7 |
| Cc1ccc(Cn2c(=O)n(Cc3ccc(C(=O)Nc4ccncc4)cc3)c(=O)c3ccccc32)cc1 | = | 3.5 |
| COCCCNC(=O)c1ccc(Cn2c(=O)c3ccccc3n(Cc3ccc(C(C)C)cc3)c2=O)cc1 | = | 6.7 |
| CC(C)c1ccc(Cn2c(=O)n(Cc3ccc(C(=O)NCc4ccco4)cc3)c(=O)c3ccccc32)cc1 | = | 2.8 |
| Cc1ccc(Cn2c(=O)n(Cc3ccc(C(=O)NCC4COC4)cc3)c(=O)c3ccccc32)cc1 | = | 5.1 |
| Cc1ccc(Cn2c(=O)n(Cc3ccc(C(=O)NCC4CCC4)cc3)c(=O)c3ccccc32)cc1 | = | 1.2 |
| COCCCCNC(=O)c1ccc(Cn2c(=O)c3ccccc3n(Cc3ccc(C)cc3)c2=O)cc1 | = | 2.1 |
